Recorded values, source patent US20260070917A1.

List of CCNE1 HIBIT Protein Quantification Maximum values.
Molecular target: CCNE1 (Homo sapiens, UniProt P24864)
Construct: host or cells: HEK293-CCNE1-Hibit
Sequence (P24864 whole entry): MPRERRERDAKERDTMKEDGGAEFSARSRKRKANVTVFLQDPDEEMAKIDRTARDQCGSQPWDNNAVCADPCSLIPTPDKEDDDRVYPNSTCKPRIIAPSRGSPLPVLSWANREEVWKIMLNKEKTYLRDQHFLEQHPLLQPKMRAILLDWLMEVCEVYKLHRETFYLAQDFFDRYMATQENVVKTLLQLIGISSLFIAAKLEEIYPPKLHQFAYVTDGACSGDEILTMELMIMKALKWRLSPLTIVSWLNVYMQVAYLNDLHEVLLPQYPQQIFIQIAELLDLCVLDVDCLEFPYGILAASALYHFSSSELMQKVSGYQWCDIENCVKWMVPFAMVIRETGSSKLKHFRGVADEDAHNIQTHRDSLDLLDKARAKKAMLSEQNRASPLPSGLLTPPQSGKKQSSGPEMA
Test: HiBit Assay Protocol for CCNE1 (HIBIT protein quantification, degradation)
Assay type: cell-based
Settings: HEK293-CCNE1-Hibit cells, compound treatment for 6 hours
Property Name: CCNE1 HIBIT Protein Quantification Maximum (%)

| Compound | Test Value |
| --- | --- |
| Cn1nc(N2CCC(=O)NC2=O)c2ccc(C3CCN(Cc4cccc(S(=O)(=O)N5CC[C@@H](Nc6ncc7c(n6)N([C@@H]6CCC[C@@H](O)C6)C(=O)C76CC6)[C@H](F)C5)c4)CC3)cc21 | 56 |
| Cn1nc(N2CCC(=O)NC2=O)c2ccc(C3CCN(Cc4cccc(S(=O)(=O)N5CC[C@H](Nc6ncc7c(n6)N([C@@H]6CCC[C@@H](O)C6)C(=O)C76CC6)[C@H](F)C5)c4)CC3)cc21 | 44 |
| CC1CN(Cc2cccc(S(=O)(=O)N3CCC(Nc4ncc5c(n4)N([C@@H]4CCC[C@@H](O)C4)C(=O)C54CC4)CC3)c2)CCC1c1ccc2c(N3CCC(=O)NC3=O)nn(C)c2c1 (stereo partly shown) | 52 |
| Cn1nc(N2CCC(=O)NC2=O)c2ccc(C3CCN(Cc4cccc(S(=O)(=O)N5CCC(Nc6ncc7c(n6)N([C@@H]6CCC[C@@H](O)C6)C(=O)C76CC6)CC5)c4)CC3)cc21 | 44 |

* * *

Biological target: CDK9 (Homo sapiens, UniProt P50750)
Construct: host or cells: HEK293-CDK9-Hibit
Sequence (P50750 whole entry): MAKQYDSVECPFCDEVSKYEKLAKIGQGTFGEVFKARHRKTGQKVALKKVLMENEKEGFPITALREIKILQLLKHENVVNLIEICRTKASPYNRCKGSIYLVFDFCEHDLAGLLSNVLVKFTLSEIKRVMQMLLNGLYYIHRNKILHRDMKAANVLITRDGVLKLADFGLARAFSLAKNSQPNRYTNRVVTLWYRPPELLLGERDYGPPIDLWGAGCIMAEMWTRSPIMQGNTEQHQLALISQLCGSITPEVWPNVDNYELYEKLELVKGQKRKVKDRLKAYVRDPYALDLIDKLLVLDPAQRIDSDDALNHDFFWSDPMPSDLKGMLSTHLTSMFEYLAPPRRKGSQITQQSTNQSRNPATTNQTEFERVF
Assay: HiBit Assay Protocol for CDK9 (HIBIT protein quantification, degradation)
Format: cell-based
Conditions: 6 h, HEK293-CDK9-Hibit cells, compound treatment for 6 hours; read-out: CDK9 HIBIT Protein Quantification Maximum
Property Name: Dmax (%)

| Compound | Property Name | Test Value |
| --- | --- | --- |
| CC1CCCC1N1C(=O)C2(CC2)c2cnc(NC3CCN(S(=O)(=O)C4CCCN(C(=O)CCCCCc5cccc6c5n(C)c(=O)n6C5CCC(=O)NC5=O)C4)CC3)nc21 (stereo not shown) | Dmax | 5 |
| CN(CCCN1CCC(c2cccc3c2n(C)c(=O)n3C2CCC(=O)NC2=O)CC1)S(=O)(=O)c1ccc(Nc2ncc3c(n2)N([C@@H]2CCC[C@@H](O)C2)C(=O)C32CC2)cc1 (stereo partly shown) | Dmax | 81 |
| C[C@@H]1CN(S(=O)(=O)c2cccc(CN3CCC(c4ccc5c(N6CCC(=O)NC6=O)nn(C)c5c4)CC3)c2)CC[C@@H]1Nc1ncc2c(n1)N([C@@H]1CCC[C@@H](O)C1)C(=O)C21CC1 | Dmax | 17 |
| CC1CCCC1N1C(=O)C2(CC2)c2cnc(NC3CCN(S(=O)(=O)N4CCC5(CCN(C(=O)CCCCCc6cccc7c6n(C)c(=O)n7C6CCC(=O)NC6=O)C5)C4)CC3)nc21 (stereo not shown) | Dmax | 17 |
| CC1CCCC1N1C(=O)C2(CC2)c2cnc(NC3CCN(S(=O)(=O)N4CC5(CCN(C(=O)CCCCCCCCCc6cccc7c6n(C)c(=O)n7C6CCC(=O)NC6=O)CC5)C4)CC3)nc21 (stereo not shown) | Dmax | 41 |
| CC1CCCC1N1C(=O)C2(CC2)c2cnc(NC3CCN(S(=O)(=O)N4CC5CN(C(=O)CCCCCc6ccc7c(c6)n(C)c(=O)n7C6CCC(=O)NC6=O)CC54)CC3)nc21 (stereo not shown) | Dmax | 21 |
| Cc1ccc(S(=O)(=O)N2CCC(Nc3ncc4c(n3)N([C@@H]3CCC[C@@H](O)C3)C(=O)C43CC3)CC2)cc1CN1CCC(c2ccc3c(N4CCC(=O)NC4=O)nn(C)c3c2)CC1 | Dmax | 26 |
| CC1CCCC1N1C(=O)C2(CC2)c2cnc(NC3CCN(S(=O)(=O)N4CC5CN(C(=O)CCc6cccc7c6n(C)c(=O)n7C6CCC(=O)NC6=O)CC5C4)CC3)nc21 (stereo not shown) | Dmax | 57 |
| CC1CCCC1N1C(=O)C2(CC2)c2cnc(NC3CCN(S(=O)(=O)N4CCCN(C(=O)CCCCc5ccc6c(c5)n(C)c(=O)n6C5CCC(=O)NC5=O)CC4)CC3)nc21 (stereo not shown) | Dmax | 6 |
| Cn1nc(N2CCC(=O)NC2=O)c2ccc(C3CCN(Cc4cccc(S(=O)(=O)N5CC[C@H](Nc6ncc7c(n6)N([C@@H]6CCC[C@@H](O)C6)C(=O)C76CC6)[C@@H](F)C5)c4)CC3)cc21 | Dmax | 12 |
| CC1CCCC1N1C(=O)C2(CC2)c2cnc(NC3CCN(S(=O)(=O)N4CC5(CCN(C(=O)CCCCc6ccc7c(c6)n(C)c(=O)n7C6CCC(=O)NC6=O)CC5)C4)CC3)nc21 (stereo not shown) | Dmax | 47 |
| CC1CCCC1N1C(=O)C2(CC2)c2cnc(NC3CCN(S(=O)(=O)N4CC5(CCCCN5C(=O)CCCc5ccc6c(c5)n(C)c(=O)n6C5CCC(=O)NC5=O)C4)CC3)nc21 (stereo not shown) | Dmax | 9 |
| CC1CCCC1N1C(=O)C2(CC2)c2cnc(NC3CCN(S(=O)(=O)N4CCN(C(=O)CCCc5cccc6c5n(C)c(=O)n6C5CCC(=O)NC5=O)CC4)CC3)nc21 (stereo not shown) | Dmax | 49 |
| CC1CCCC1N1C(=O)C2(CC2)c2cnc(NC3CCN(S(=O)(=O)N4CCN(C(=O)CCCCCc5ccc6c(c5)n(C)c(=O)n6C5CCC(=O)NC5=O)CC4)CC3)nc21 (stereo not shown) | Dmax | 40 |
| CC1CCCC1N1C(=O)C2(CC2)c2cnc(NC3CCN(S(=O)(=O)N4CC5(CCCCN5C(=O)CCCCc5ccc6c(c5)n(C)c(=O)n6C5CCC(=O)NC5=O)C4)CC3)nc21 (stereo not shown) | Dmax | 12 |
| CC1CCCC1N1C(=O)C2(CC2)c2cnc(NC3CCN(S(=O)(=O)C4CCN(C(=O)CCCCCCCc5ccc6c(c5)n(C)c(=O)n6C5CCC(=O)NC5=O)C4)CC3)nc21 (stereo not shown) | Dmax | 30 |
